Experimental Target: CD3ε homodimer protein (human, UniProt P07766 23-126, limits assumed)
Sequence (P07766 23-126 limits assumed): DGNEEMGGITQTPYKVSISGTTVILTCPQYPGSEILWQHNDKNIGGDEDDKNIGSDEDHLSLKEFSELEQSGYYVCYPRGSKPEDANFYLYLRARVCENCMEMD
Method Summary: SPR, immobilized CD3ε homodimer;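 note: biacore T200 surface plasmon resonance at 25 °C, antibody variants flowed as analytes over amine-coupled CD3ε homodimer on a CM4 chip, variant binding amount divided by that of GLS3000 antibody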
Measured Metric: ratio of amounts bound (vs GLS3000)
Just the number, please.

Answered examples (2):
GLS3000 Q27R (antibody, name in Kabat numbering, V domains shown, one-arm format as m2) VH: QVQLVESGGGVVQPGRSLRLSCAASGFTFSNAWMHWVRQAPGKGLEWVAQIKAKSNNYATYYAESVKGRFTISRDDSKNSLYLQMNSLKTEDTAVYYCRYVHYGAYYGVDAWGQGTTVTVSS VL: DIVMTQSPLSLPVTPGEPASISCRSSRSLVHSNRNTYLHWYQQKPGQAPRLLIYKVSNRFSGVPDRFSGSGSGTDFTLKISRVEAEDVGVYYCGQGTQVPYTFGQGTKLEIK: 1.19
GLS3000 T92P (antibody, name in Kabat numbering, V domains shown, one-arm format as m2) VH: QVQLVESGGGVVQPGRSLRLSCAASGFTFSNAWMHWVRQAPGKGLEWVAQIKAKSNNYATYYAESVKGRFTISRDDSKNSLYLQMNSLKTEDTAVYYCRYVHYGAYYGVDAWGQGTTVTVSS VL: DIVMTQSPLSLPVTPGEPASISCRSSQSLVHSNRNTYLHWYQQKPGQAPRLLIYKVSNRFSGVPDRFSGSGSGTDFTLKISRVEAEDVGVYYCGQGPQVPYTFGQGTKLEIK: 0.26

Okay, now this binder:
Request: Tell me the measured ratio of amounts bound (vs GLS3000) of GLS3000 G89Y (antibody, name in Kabat numbering, V domains shown, one-arm format as m2) VH: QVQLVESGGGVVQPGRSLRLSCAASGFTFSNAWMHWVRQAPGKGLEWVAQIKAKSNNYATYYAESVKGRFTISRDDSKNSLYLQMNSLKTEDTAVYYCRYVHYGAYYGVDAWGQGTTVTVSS VL: DIVMTQSPLSLPVTPGEPASISCRSSQSLVHSNRNTYLHWYQQKPGQAPRLLIYKVSNRFSGVPDRFSGSGSGTDFTLKISRVEAEDVGVYYCYQGTQVPYTFGQGTKLEIK , please.
Response: 1.19

Where do these numbers come from? They come from patent US20220040297A1.
